Could you please report measured MIC for the items listed next?
System: Staphylococcus aureus 209P
EXPERIMENT SUMMARY: in vitro antibacterial activity (minimum inhibitory concentration), standard method of the Japan Chemotherapy Society
Format: cell-based
RUN CONDITIONS: Gram (+), 10^6 cells/ml, read-out: Minimum inhibitory concentration for growth
Numbers only, in µg/mL.

>  <COMPOUND>
CO/N=C(\C(=O)N[C@@H]1C(=O)N2C(C(=O)O)=C(CSc3cc(=O)c4cc(O)c(O)cc4s3)CS[C@H]12)c1nsc(N)n1 [Example 90]

>  <MIC / µg/mL>
1.56

$$$$
>  <COMPOUND>
Nc1nc(/C(=N/OCC(=O)O)C(=O)N[C@@H]2C(=O)N3C(C(=O)O)=C(CSc4cc(=O)c5cc(O)c(O)cc5s4)CS[C@H]23)cs1 [Example 108]

>  <MIC / µg/mL>
6.25

$$$$
>  <COMPOUND>
CO/N=C(\C(=O)N[C@@H]1C(=O)N2C(C(=O)O)=C(COC(C)=O)CS[C@H]12)c1csc(N)n1 [CTX, cefotaxime, reference compound]

>  <MIC / µg/mL>
0.78

$$$$

# per-item lookup of MIC; items listed below
1. Nc1nc(/C(=N/OCC(=O)O)C(=O)N[C@@H]2C(=O)N3C(C(=O)O)=C(CSc4sc5cc(O)c(O)cc5c(=O)c4Br)CS[C@H]23)cs1 [Example 100]
2. CC(C)(O/N=C(\C(=O)N[C@@H]1C(=O)N2C(C(=O)O)=C(CSc3cc(=O)c4cc(O)c(O)cc4s3)CS[C@H]12)c1csc(N)n1)C(=O)O [Example 110]

Outgoing:
1: 12.5; 2: 6.25

Incoming: # MIC lookup, item CO/N=C(\C(=O)N[C@@H]1C(=O)N2C(C(=O)O)=C(CSc3cc(=O)c4cc(O)c(O)cc4s3)CS[C@H]12)c1csc(N)n1 [Example 75]
Outgoing: 0.39
